- TEST_SYSTEM: NLRP3 (Homo sapiens)
- ASSAY_NOTES: Human whole blood IL-1β release assay
- Assay type: cell-based
- Design: Plate out 80 μl of whole blood containing 1 μg/ml of LPS in 96-well, clear bottom cell culture plate; from tissue; host or cells: human whole blood from healthy donors
- RECORDED_CONDITIONS: LPS 1 μg/ml, compound 3 hrs, nigericin 10 μM 1 hr, IL-1β by AlphaLisa, read-out: HWB IC50
pIC50: −log10 of the molar value. Where a name gives a salt, the structure may show the parent alone.
In this section, each of the compounds is paired with its reported pIC50.

Example entries and their recorded answers appear below.
Cc1cnc2cc1-c1ccc3c(c1NC(=O)NS(=O)(=O)c1ccn(n1)C(C)(C)CO2)CCC3 [Example 33, sodium salt] = 5.30 to 6.00
O=C1Nc2c(ccc3c2CCC3)-c2ccnc(c2)OCCCCCn2cc(cn2)S(=O)(=O)N1 = 5.30 to 6.00
Cc1cc2c(c3c1-c1ccnc(c1)OCCn1cc(F)c(n1)S(=O)(=O)NC(=O)N3)CCC2 [Example 29, sodium salt] = 6.30 to 7.00
Cc1cc2c(c3c1-c1ccnc(c1)OCC(C)(C)n1ccc(n1)S(=O)(=O)NC(=O)N3)CCC2 [Example 24, Sodium Salt] = 6.30 to 7.00
CN1CCOc2cc(ccn2)-c2ccc3c(c2NC(=O)NS(=O)(=O)c2ccn(n2)C(C)(C)C1)CCC3 = 6.00 to 6.30
O=C1Nc2c(ccc3c2CCC3)-c2ccnc(c2)O[C@H]2COC[C@@H]2n2ccc(n2)S(=O)(=O)N1 (racemic) = 6.30 to 7.00

Challenge: State pIC50 (NLRP3 (Homo sapiens)) of O=C1Nc2c(ccc3c2CCC3)-c2ccnc(c2)OCCCCCS(=O)(=O)N1 .
Response given: 6.00 to 6.30

Challenge: State pIC50 (NLRP3 (Homo sapiens)) of O=C1Nc2c(ccc3c2CCC3)-c2ccnc(c2)OCCCn2cc(F)c(n2)S(=O)(=O)N1 .
Response given: 6.30 to 7.00

Challenge: State pIC50 (NLRP3 (Homo sapiens)) of Cc1cc2c(c3c1-c1ccnc(c1)OCC(C)(C)n1cc(F)c(n1)S(=O)(=O)NC(=O)N3)CCC2 .
Response given: 6.30 to 7.00

Challenge: State pIC50 (NLRP3 (Homo sapiens)) of O=C1Nc2c(ccc3c2CCC3)-c2cc(F)nc(c2)OCCn2cc(F)c(n2)S(=O)(=O)N1 .
Response given: 6.30 to 7.00

----------
- TEST_SYSTEM: NLRP3 (Homo sapiens, UniProt Q96P20)
- Sequence (Q96P20 whole entry): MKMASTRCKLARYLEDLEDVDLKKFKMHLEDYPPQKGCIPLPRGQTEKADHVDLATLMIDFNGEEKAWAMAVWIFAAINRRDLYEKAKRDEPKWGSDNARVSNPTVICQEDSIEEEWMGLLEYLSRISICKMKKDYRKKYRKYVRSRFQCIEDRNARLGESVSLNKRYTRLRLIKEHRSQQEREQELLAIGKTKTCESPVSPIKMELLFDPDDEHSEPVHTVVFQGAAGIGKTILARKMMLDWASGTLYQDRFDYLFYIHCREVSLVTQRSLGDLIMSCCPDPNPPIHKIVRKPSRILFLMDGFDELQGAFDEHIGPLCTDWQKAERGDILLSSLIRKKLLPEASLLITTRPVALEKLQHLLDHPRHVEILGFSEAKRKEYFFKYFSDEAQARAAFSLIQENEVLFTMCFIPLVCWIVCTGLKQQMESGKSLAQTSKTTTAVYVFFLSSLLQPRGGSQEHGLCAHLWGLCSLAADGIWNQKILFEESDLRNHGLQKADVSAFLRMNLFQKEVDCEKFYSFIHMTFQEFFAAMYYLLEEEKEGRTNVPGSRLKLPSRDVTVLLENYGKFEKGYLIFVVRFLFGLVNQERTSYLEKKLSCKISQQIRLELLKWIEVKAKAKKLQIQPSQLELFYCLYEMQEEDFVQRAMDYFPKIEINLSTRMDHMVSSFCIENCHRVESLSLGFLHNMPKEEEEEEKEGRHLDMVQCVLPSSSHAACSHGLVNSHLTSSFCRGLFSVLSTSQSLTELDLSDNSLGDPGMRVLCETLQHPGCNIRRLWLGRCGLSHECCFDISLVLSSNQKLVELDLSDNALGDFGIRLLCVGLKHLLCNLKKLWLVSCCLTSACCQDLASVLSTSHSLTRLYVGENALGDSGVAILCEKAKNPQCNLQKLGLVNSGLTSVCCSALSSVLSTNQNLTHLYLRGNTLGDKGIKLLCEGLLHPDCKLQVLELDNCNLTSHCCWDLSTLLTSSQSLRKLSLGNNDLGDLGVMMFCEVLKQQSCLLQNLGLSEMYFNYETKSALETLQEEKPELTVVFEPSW
- ASSAY_NOTES: THP-1 cells pyroptosis assay
- Assay type: cell-based
- Design: Seed THP-1 cells (25,000 cells/well) containing 1.0 μg/ml LPS in 40 μl of RPMI medium; host or cells: THP-1 cells
- RECORDED_CONDITIONS: LPS 1 μg/ml, compound 3 hrs, nigericin 5 μM 1 hr, resazurin readout
pIC50: −log10 of the molar value.
In this section, each of the compounds is paired with its reported pIC50.

Example entries and their recorded answers appear below.
CC(C)c1cc(F)cc2c1NC(=O)NS(=O)(=O)c1ccn(n1)C(C)(C)COc1cc-2ccn1 [Example 43] = 6.30 to 7.00
O=C1Nc2c3c(cc4c2C(CCCCCCn2ccc(n2)S(=O)(=O)N1)CC4)CCC3 (racemic) [Example 48] = 5.30 to 6.00
CN1CCCOc2cc(ccn2)-c2ccc3c(c2NC(=O)NS(=O)(=O)c2cc(n(C4CC4)n2)C1)CCC3 [Example 14] = 6.30 to 7.00

Now look at this one.
Challenge: Indicate the recorded pIC50 value for this compound: CN(C)Cc1cc2nn1CCCOc1cc(ccn1)-c1ccc3c(c1NC(=O)NS2(=O)=O)CCC3 [Example 22]
Response given: 6.30 to 7.00

----------
- TEST_SYSTEM: NLRP3 (Homo sapiens)
- ASSAY_NOTES: THP-1 cells pyroptosis assay
- Type: cell-based
- Parameters: Seed THP-1 cells (25,000 cells/well) containing 1.0 μg/ml LPS in 40 μl of RPMI medium; host or cells: THP-1 cells
- RECORDED_CONDITIONS: LPS 1 μg/ml, compound 3 hrs, nigericin 5 μM 1 hr, resazurin readout
Counter-ions that a name gives are not always drawn.
In this section, each of the compounds is paired with its reported IC50.

Example entries and their recorded answers appear below.
Cc1cc2c(c3c1-c1ccnc(c1)OCC(C)(C)n1ccc(n1)S(=O)(=O)NC(=O)N3)CCC2 [Example 24, Sodium Salt] = ≤ 100 nM
O=C1Nc2c(ccc3c2CCC3)-c2ccnc(c2)OCC2(CCOCC2)n2ccc(n2)S(=O)(=O)N1 = ≤ 100 nM
Cc1cc2c(c3c1-c1ccnc(c1)OCCn1cc(F)c(n1)S(=O)(=O)NC(=O)N3)CCC2 [Example 29, sodium salt] = ≤ 100 nM

Challenge: Indicate the recorded IC50 value for this compound: CN1CCOc2cc(ccn2)-c2ccc3c(c2NC(=O)NS(=O)(=O)c2ccn(n2)C(C)(C)C1)CCC3
Response given: 100 to 500 nM

Challenge: Indicate the recorded IC50 value for this compound: O=C1Nc2c(ccc3c2CCC3)-c2ccnc(c2)OCCc2cccc(c2)S(=O)(=O)N1 [Example 31, sodium salt]
Response given: ≤ 100 nM

Challenge: Indicate the recorded IC50 value for this compound: O=C1Nc2c(ccc3c2CCC3)-c2ccnc(c2)OCCn2ccc(n2)S(=O)(=O)N1
Response given: ≤ 100 nM

----------
- TEST_SYSTEM: UniProtKB Q96P20
- ASSAY_NOTES: Human whole blood IL-1β release assay
- Assay type: cell-based
- Design: Plate out 80 μl of whole blood containing 1 μg/ml of LPS in 96-well, clear bottom cell culture plate; from tissue; host or cells: human whole blood from healthy donors
- RECORDED_CONDITIONS: LPS 1 μg/ml, compound 3 hrs, nigericin 10 μM 1 hr, IL-1β by AlphaLisa, read-out: HWB IC50
Structures can show the parent of a compound that is named as a salt.
READOUT_TYPE: IC50

Example entries and their recorded answers appear below.
CC(C)c1cc(F)cc2c1NC(=O)NS(=O)(=O)c1nn(cc1F)CCOc1cc-2ccn1 [Example 44, sodium salt] = 100 to 500 nM
O=C1Nc2c(ccc3c2CCC3)-c2ccnc(c2)OCCCCn2ccc(n2)S(=O)(=O)N1 [Example 4] = 500 to 1000 nM

Challenge: Indicate the recorded IC50 value for this compound: CC(C)c1cc(F)cc2c1NC(=O)NS(=O)(=O)c1ccn(n1)C(C)(C)COc1cc-2ccn1 [Example 43]
Response given: 100 to 500 nM

Challenge: Indicate the recorded IC50 value for this compound: CC(C)c1cc(F)cc2c1NC(=O)NS(=O)(=O)c1nn(cc1F)C(C)(C)COc1cc-2ccn1 [Example 30, sodium salt]
Response given: 100 to 500 nM

Challenge: Indicate the recorded IC50 value for this compound: CC(C)c1cc(F)cc2c1NC(=O)NS(=O)(=O)c1ccn(n1)CCCCCOc1cc-2ccn1 [Example 10]
Response given: 1000 to 5000 nM

Challenge: Indicate the recorded IC50 value for this compound: O=C1Nc2c3c(cc(F)c2-c2ccnc(c2)OCCn2cc(F)c(n2)S(=O)(=O)N1)CCC3 [Example 40]
Response given: 100 to 500 nM

Challenge: Indicate the recorded IC50 value for this compound: CN(C)Cc1cc2nn1CCCOc1cc(ccn1)-c1ccc3c(c1NC(=O)NS2(=O)=O)CCC3 [Example 22]
Response given: 100 to 500 nM

Challenge: Indicate the recorded IC50 value for this compound: CC(C)c1cnn2c1NC(=O)NS(=O)(=O)c1nn(cc1F)C(C)(C)COc1cc-2ccn1 [Example 47]
Response given: 500 to 1000 nM

Challenge: Indicate the recorded IC50 value for this compound: O=C1Nc2c(ccc3c2CCC3)-c2ccnc(c2)OCCCCCCn2ccc(n2)S(=O)(=O)N1 [Example 5]
Response given: 1000 to 5000 nM

----------
In this section, each of the compounds is paired with its reported IC50.
- TEST_SYSTEM: UniProtKB Q96P20
- ASSAY_NOTES: THP-1 cells pyroptosis assay
- Assay type: cell-based
- Set-up: Seed THP-1 cells (25,000 cells/well) containing 1.0 μg/ml LPS in 40 μl of RPMI medium; host or cells: THP-1 cells
- RECORDED_CONDITIONS: LPS 1 μg/ml, compound 3 hrs, nigericin 5 μM 1 hr, resazurin readout
Counter-ions that a name gives are not always drawn.

O=C1Nc2c(ccc3c2CCC3)-c2cccc(c2)OCCCCCn2ccc(n2)S(=O)(=O)N1 [Example 9] = 500 to 1000 nM

Challenge: Indicate the recorded IC50 value for this compound: O=C1Nc2c(ccc3c2CCC3)-c2ccnc(c2)OCCn2cc(F)c(n2)S(=O)(=O)N1 [Example 25]
Response given: ≤ 100 nM

Challenge: Indicate the recorded IC50 value for this compound: O=C1Nc2c(ccc3c2CCC3)-c2ccnc(c2)OCCCCCn2ccc(n2)S(=O)(=O)N1 [Example 1]
Response given: 100 to 500 nM

Challenge: Indicate the recorded IC50 value for this compound: O=C1Nc2c(ccc3c2CCC3)-c2ccnc(c2)OCCCCCCn2ccc(n2)S(=O)(=O)N1 [Example 5]
Response given: 100 to 500 nM

Challenge: Indicate the recorded IC50 value for this compound: O=C1Nc2c(ccc3c2CCC3)-c2ccnc(c2)OCCCCn2ccc(n2)S(=O)(=O)N1 [Example 4]
Response given: 100 to 500 nM

Challenge: Indicate the recorded IC50 value for this compound: Cc1cc2c(c3c1-c1ccnc(c1)OCC(C)(C)n1ccc(n1)S(=O)(=O)NC(=O)N3)CCO2 [Example 37, sodium salt]
Response given: ≤ 100 nM

Challenge: Indicate the recorded IC50 value for this compound: O=C1Nc2c(ccc3c2CCC3)-c2ccnc(c2)OC2CCC(C2)Cn2ccc(n2)S(=O)(=O)N1 (stereo not shown) [Example 46]
Response given: 1000 to 5000 nM

Challenge: Indicate the recorded IC50 value for this compound: CN1CCOc2cc(ccn2)-c2ccc3c(c2NC(=O)NS(=O)(=O)c2ccn(n2)CC1)CCC3 [Example 8]
Response given: 500 to 1000 nM

Challenge: Indicate the recorded IC50 value for this compound: CC(C)c1cc(F)cc2c1NC(=O)NS(=O)(=O)c1nn(cc1F)CCOc1cc-2ccn1 [Example 44, sodium salt]
Response given: ≤ 100 nM

Challenge: Indicate the recorded IC50 value for this compound: CC1(C)COc2cc(c(F)cn2)-c2ccc3c(c2NC(=O)NS(=O)(=O)c2ccn1n2)CCC3 [Example 38, sodium salt]
Response given: 100 to 500 nM

Challenge: Indicate the recorded IC50 value for this compound: O=C1Nc2c(ccc3c2CCC3)-c2ccnc(c2)OCCCOCc2cc(nn2C2CC2)S(=O)(=O)N1 [Example 15]
Response given: ≤ 100 nM

Challenge: Indicate the recorded IC50 value for this compound: CC1(C)COc2cc(ccn2)-c2c(F)cc3c(c2NC(=O)NS(=O)(=O)c2ccn1n2)CCC3 [Example 34]
Response given: ≤ 100 nM

Challenge: Indicate the recorded IC50 value for this compound: CC1(C)COc2nccc(c2F)-c2ccc3c(c2NC(=O)NS(=O)(=O)c2ccn1n2)CCC3 [Example 32, sodium salt]
Response given: 100 to 500 nM

Challenge: Indicate the recorded IC50 value for this compound: Cc1cnc2cc1-c1ccc3c(c1NC(=O)NS(=O)(=O)c1ccn(n1)C(C)(C)CO2)CCC3 [Example 33, sodium salt]
Response given: 500 to 1000 nM

Challenge: Indicate the recorded IC50 value for this compound: O=C1Nc2c(ccc3c2CCC3)-c2ccnc(c2)OCCCn2cc(F)c(n2)S(=O)(=O)N1 [Example 23]
Response given: 100 to 500 nM

Challenge: Indicate the recorded IC50 value for this compound: CN(C)Cc1cc2nn1CCCCCOc1cc(ccn1)-c1ccc3c(c1NC(=O)NS2(=O)=O)CCC3 [Example 17]
Response given: ≤ 100 nM
